B1: glmS ribozyme (parent)
chain: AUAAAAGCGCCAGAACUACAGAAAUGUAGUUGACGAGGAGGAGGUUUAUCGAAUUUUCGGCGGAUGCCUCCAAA

Variants of: B1
protocol-notes: self-cleavage kobs at 2500 uM GlcN6P; higher = faster cleavage; RNA array
assay-conditions: with glucosamine-6-phosphate
This sample holds only a part of the variants without activity.

# mutant, limit-qualifier, self-cleavage kobs at 2500 uM GlcN6P, s⁻¹
rows = [
    ("G7A A36G G38A U47G A53G", "<", "1e-05"),
    ("G7U A14C G37C", "<", "1e-05"),
    ("A42U G66A", "=", "7.23e-05"),
    ("C10A A15G C34A G44A C67A C68A", "<", "1e-05"),
    ("G9U U31A U65G", "<", "1e-05"),
    ("U69C", "=", 0.00383),
    ("A15G G44U", "=", 0.000252),
    ("G13A U30A G32U", "=", "7.99e-05"),
    ("A15C G37A A39G", "=", 0.000365),
    ("G41C U49A U65A", "<", "1e-05"),
    ("C10U G40A C70G", "<", "1e-05"),
    ("G13U U56A", "=", 0.000287),
    ("C8G A33G A42G U55G", "<", "1e-05"),
    ("A12U A64G C67G", "=", "7.12e-05"),
    ("C8G A12C A42U C68U", "<", "1e-05"),
    ("G7C C8G G9C C19A C61A", "<", "1e-05"),
    ("A36U G51U G63U", "<", "1e-05"),
    ("C50U G59C", "<", "1e-05"),
    ("U47G C68G", "=", 0.000104),
    ("G26U G40U", "=", 0.00144),
    ("A15C C34A", "<", "1e-05"),
    ("A36U U57G A64G C67U", "<", "1e-05"),
]

All values here come from the supplement of paper PMC7125110.
